For each entry below, report its log10 Kd value.
TESTED_TARGET: T1, EsCas13d, nuclease-dead (Eubacterium siraeum, UniProt B0MS50, R295A;H300A;R849A;H854A)
T1 sequence: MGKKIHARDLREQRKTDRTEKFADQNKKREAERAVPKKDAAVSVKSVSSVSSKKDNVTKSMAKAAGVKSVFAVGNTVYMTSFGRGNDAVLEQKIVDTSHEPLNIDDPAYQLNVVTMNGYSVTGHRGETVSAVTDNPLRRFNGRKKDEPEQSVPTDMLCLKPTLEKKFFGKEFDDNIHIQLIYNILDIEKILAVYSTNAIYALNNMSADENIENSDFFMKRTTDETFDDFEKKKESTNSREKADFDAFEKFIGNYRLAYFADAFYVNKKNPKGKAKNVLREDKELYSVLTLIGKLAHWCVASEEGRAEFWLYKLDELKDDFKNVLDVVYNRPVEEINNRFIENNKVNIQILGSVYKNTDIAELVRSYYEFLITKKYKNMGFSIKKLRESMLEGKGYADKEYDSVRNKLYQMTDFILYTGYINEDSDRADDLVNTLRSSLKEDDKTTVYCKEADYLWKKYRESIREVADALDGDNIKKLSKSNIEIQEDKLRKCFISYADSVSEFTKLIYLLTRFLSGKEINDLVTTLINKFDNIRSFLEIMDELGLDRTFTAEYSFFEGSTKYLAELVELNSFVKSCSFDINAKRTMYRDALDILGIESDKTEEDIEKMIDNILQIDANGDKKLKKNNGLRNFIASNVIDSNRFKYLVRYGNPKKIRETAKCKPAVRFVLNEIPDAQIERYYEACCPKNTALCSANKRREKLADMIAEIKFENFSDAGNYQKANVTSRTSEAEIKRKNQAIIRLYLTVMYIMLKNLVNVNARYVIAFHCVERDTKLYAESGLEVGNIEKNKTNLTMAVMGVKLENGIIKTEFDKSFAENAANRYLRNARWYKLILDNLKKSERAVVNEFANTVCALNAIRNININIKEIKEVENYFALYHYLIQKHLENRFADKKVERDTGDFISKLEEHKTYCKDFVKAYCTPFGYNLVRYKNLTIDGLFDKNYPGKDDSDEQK
TEST_SUMMARY: crRNA (strand 1, pre-loaded); Mg2+; 40 mM Tris-HCl pH 7.5, 150 mM NaCl, 6 mM MgCl2, 1 mM DTT, 0.1% Tween-20, 0.2 mg/ml BSA; 25 C; 10 min per concentration, then washed
EXPERIMENTAL_SETUP: tags: His6-TwinStrep-SUMO cleaved; N-terminal SNAP kept (SNAP-Surface 488); label: 3' end held by stalled T7 RNA polymerase
The common logarithm of Kd in nM is what is listed.

Consider the worked cases shown below.
>>> result_value("target 2 MT 5'PFS UCA 3'PFS CUU (mixed) RNA 1: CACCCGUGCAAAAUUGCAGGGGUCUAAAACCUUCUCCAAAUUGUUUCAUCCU RNA 2: GGGAAUGGAUCCACAUCUACGAAUUCUCAAGGAUGAAACAAUUUGGAGAAGCUUAGAUCGGAAGAGCACACGU")
0.70
>>> result_value("target 1 U10C (mixed) RNA 1: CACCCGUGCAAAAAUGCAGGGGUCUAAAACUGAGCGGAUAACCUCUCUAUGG RNA 2: GGGAAUGGAUCCACAUCUACGAAUUCGUACCAUAGAGAGGUCAUCCGCUCACCGAGAUCGGAAGAGCACACGU")
1.26
>>> result_value("target 3 insA 3' of 21,insA 3' of 21 (mixed) RNA 1: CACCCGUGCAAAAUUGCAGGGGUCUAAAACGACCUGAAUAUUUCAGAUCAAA RNA 2: GGGAAUGGAUCCACAUCUACGAAUUCGUUUUAAUGAUCUGAAAUAUUCAGGUCUGCAGAUCGGAAGAGCACACGU")
1.47
>>> result_value("target 2 MT 5'PFS GCU 3'PFS AUG (mixed) RNA 1: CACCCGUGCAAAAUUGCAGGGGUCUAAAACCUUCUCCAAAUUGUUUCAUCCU RNA 2: GGGAAUGGAUCCACAUCUACGAAUUCGCUAGGAUGAAACAAUUUGGAGAAGAUGAGAUCGGAAGAGCACACGU")
1.34
>>> result_value("target 3 complement block 4-6 (mixed) RNA 1: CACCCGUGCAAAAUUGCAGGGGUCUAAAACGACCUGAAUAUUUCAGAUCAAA RNA 2: GGGAAUGGAUCCACAUCUACGAAUUCGUUUUUGAUCUGAAAUAUUGUCGUCUGCAGAUCGGAAGAGCACACGU")
1.37

Each binder below has a recorded value; state its log10 Kd.
1. target 1 MT 5'PFS UUA 3'PFS AUA (mixed) RNA 1: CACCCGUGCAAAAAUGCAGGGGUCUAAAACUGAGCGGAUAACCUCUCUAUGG RNA 2: GGGAAUGGAUCCACAUCUACGAAUUCUUACCAUAGAGAGGUUAUCCGCUCAAUAAGAUCGGAAGAGCACACGU
2. target 2 MT 5'PFS CUU 3'PFS CAA (mixed) RNA 1: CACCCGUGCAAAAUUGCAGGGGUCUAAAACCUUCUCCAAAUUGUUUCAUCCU RNA 2: GGGAAUGGAUCCACAUCUACGAAUUCCUUAGGAUGAAACAAUUUGGAGAAGCAAAGAUCGGAAGAGCACACGU
3. target 1 MT 5'PFS AGU 3'PFS UUG (mixed) RNA 1: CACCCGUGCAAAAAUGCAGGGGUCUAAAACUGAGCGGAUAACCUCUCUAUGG RNA 2: GGGAAUGGAUCCACAUCUACGAAUUCAGUCCAUAGAGAGGUUAUCCGCUCAUUGAGAUCGGAAGAGCACACGU

1: 1.89; 2: 0.46; 3: 1.67
